B1: EEHEE_rd4_0363 (parent)
chain: VTVDIKGMEYHFDNPEEAKKFAERMAKELGGELKVENGTLKVE

- Variants of: B1
- measurement description: folding stability dG (cDNA display proteolysis); higher = more stable
- test conditions: PBS, room temperature
Recorded folding stability dG determines the label; the label ranges are low: < 1 kcal/mol; medium: ≥ 1 kcal/mol and < 2 kcal/mol; high: ≥ 2 kcal/mol

mutation key	cat
K41T	medium
K27A	high
F12L	low
E9C	high
E17K	medium
N37I	medium
E17S	medium
E23D	medium
D13T	medium
H11A	medium
R24H	medium
F21Y	medium
E23L	medium
G7C	medium
G38K	low
H11M	medium
N14T	high
V35D	medium
K6Q	high
L29H	medium
L40S	low
L33F	medium
K19M	high
G7L	low
A22Y	medium
D13L	medium
V42W	medium
G31M	high
L29F	medium
I5E	low
T39D	medium
E23W	medium
R24T	medium
E9K	high
N14C	medium
N14S	high
F21C	low
A22G	low
E36S	medium
E28T	medium
P15D	medium
K19R	high
F12S	low
G30H	medium
